- Study System: Somatostatin receptor type 5 (Homo sapiens, UniProt P35346)
- Sequence (P35346 whole entry): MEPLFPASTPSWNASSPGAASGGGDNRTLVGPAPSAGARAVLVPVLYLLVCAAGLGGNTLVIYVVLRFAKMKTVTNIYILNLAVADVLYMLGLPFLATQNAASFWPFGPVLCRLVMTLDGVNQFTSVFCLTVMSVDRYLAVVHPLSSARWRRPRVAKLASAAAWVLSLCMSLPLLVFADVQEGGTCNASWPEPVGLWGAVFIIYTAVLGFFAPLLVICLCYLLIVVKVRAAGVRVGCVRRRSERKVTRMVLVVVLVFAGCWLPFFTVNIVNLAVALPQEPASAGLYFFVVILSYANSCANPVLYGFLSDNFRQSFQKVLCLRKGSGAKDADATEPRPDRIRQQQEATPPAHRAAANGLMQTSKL
- Protocol Summary: Binding affinity towards human Somatostatin receptor type 5 (sst5) using Tyr11-[125I]-SRIF as radioligand was determined in COS cell
Positions of bridges follow the written chain, without caps; N, C: chain ends. Non-standard residues stand in square brackets, D forms with d. Residues, ends and D or L forms follow the SMILES beside them. *: point of attachment. Hyp = O=C(O)[C@@H]1C[C@@H](O)CN1; Bn = c1ccc(C*)cc1
Readout Type: log10 Ki (log10 of the value in pM)
Remember, log10 of Ki, in pM.

Answered examples (3):
// query log10 Ki value for entry NCCCC[C@@H]1NC(=O)[C@@H](Cc2c[nH]c3ccccc23)NC(=O)[C@H](Cc2ccccc2)NC(=O)[C@@H]2C[C@@H](O)CN2C(=O)[C@H](Cc2ccccc2)NC(=O)[C@H](Cc2ccc(OCc3ccccc3)cc2)NC1=O (cyclo(F[Hyp]F[dW]KY(Bn)))
2.50

Moving on to C[C@H](N)C(=O)NCC(=O)N[C@H]1CSSC[C@@H](C(N)=O)NC(=O)[C@H](CO)NC(=O)[C@H]([C@@H](C)O)NC(=O)[C@H](Cc2ccccc2)NC(=O)[C@H]([C@@H](C)O)NC(=O)[C@H](CCCCN)NC(=O)[C@H](Cc2c[nH]c3ccccc23)NC(=O)[C@H](Cc2ccccc2)NC(=O)[C@H](Cc2ccccc2)NC(=O)[C@H](CC(N)=O)NC(=O)[C@H](C)NC1=O (H-AGCANFFWKTFTSC-NH2; disulfide 3-14)
3.00

One more compound: C[C@H](N)C(=O)NCC(=O)N[C@H]1CSSC[C@@H](C(N)=O)NC(=O)[C@H](CO)NC(=O)[C@H](C)NC(=O)[C@H](Cc2ccccc2)NC(=O)[C@H]([C@@H](C)O)NC(=O)[C@H](CCCCN)NC(=O)[C@H](Cc2c[nH]c3ccccc23)NC(=O)[C@H](Cc2ccccc2)NC(=O)[C@H](Cc2ccccc2)NC(=O)[C@H](CC(N)=O)NC(=O)[C@H](CCCCN)NC1=O (H-AGCKNFFWKTFASC-NH2; disulfide 3-14)
2.60

Others:
What value of log10 Ki has been reported for the following compound? C[C@H](N)C(=O)NCC(=O)N[C@H]1CSSC[C@@H](C(N)=O)NC(=O)[C@H](CO)NC(=O)[C@H]([C@@H](C)O)NC(=O)[C@H](Cc2ccccc2)NC(=O)[C@H](C)NC(=O)[C@H](CCCCN)NC(=O)[C@H](Cc2c[nH]c3ccccc23)NC(=O)[C@H](Cc2ccccc2)NC(=O)[C@H](Cc2ccccc2)NC(=O)[C@H](CC(N)=O)NC(=O)[C@H](CCCCN)NC1=O (H-AGCKNFFWKAFTSC-NH2; disulfide 3-14)
2.80

Item: "NCCCCCNC(=O)O[C@@H]1C[C@H]2C(=O)N[C@@H](Cc3ccccc3)C(=O)N[C@H](Cc3c[nH]c4ccccc34)C(=O)N[C@@H](CCCCN)C(=O)N[C@@H](Cc3ccc(OCc4ccccc4)cc3)C(=O)N[C@@H](Cc3ccccc3)C(=O)N2C1"
2.80

Do the same for C[C@H](N)C(=O)NCC(=O)N[C@H]1CSSC[C@@H](C(N)=O)NC(=O)[C@H](CO)NC(=O)[C@H]([C@@H](C)O)NC(=O)[C@H](Cc2ccccc2)NC(=O)[C@H]([C@@H](C)O)NC(=O)[C@H](CCCCN)NC(=O)[C@H](Cc2c[nH]c3ccccc23)NC(=O)[C@H](C)NC(=O)[C@H](Cc2ccccc2)NC(=O)[C@H](CC(N)=O)NC(=O)[C@H](CCCCN)NC1=O (H-AGCKNFAWKTFTSC-NH2; disulfide 3-14) please
4.90

Subsequent entry: C[C@H](N)C(=O)NCC(=O)N[C@H]1CSSC[C@@H](C(N)=O)NC(=O)[C@H](C)NC(=O)[C@H]([C@@H](C)O)NC(=O)[C@H](Cc2ccccc2)NC(=O)[C@H]([C@@H](C)O)NC(=O)[C@H](CCCCN)NC(=O)[C@H](Cc2c[nH]c3ccccc23)NC(=O)[C@H](Cc2ccccc2)NC(=O)[C@H](Cc2ccccc2)NC(=O)[C@H](CC(N)=O)NC(=O)[C@H](CCCCN)NC1=O (H-AGCKNFFWKTFTAC-NH2; disulfide 3-14)
2.90

Repeat for the following compound: "CN(C)CCNC(=O)O[C@@H]1C[C@H]2C(=O)N[C@@H](Cc3ccccc3)C(=O)N[C@H](Cc3c[nH]c4ccccc34)C(=O)N[C@@H](CCCCN)C(=O)N[C@@H](Cc3ccc(OCc4ccccc4)cc3)C(=O)N[C@@H](Cc3ccccc3)C(=O)N2C1"
2.00

What about C[C@H](N)C(=O)NCC(=O)N[C@H]1CSSC[C@@H](C(N)=O)NC(=O)[C@H](CO)NC(=O)[C@H]([C@@H](C)O)NC(=O)[C@H](Cc2ccccc2)NC(=O)[C@H]([C@@H](C)O)NC(=O)[C@H](CCCCN)NC(=O)[C@H](Cc2c[nH]c3ccccc23)NC(=O)[C@H](Cc2ccccc2)NC(=O)[C@H](Cc2ccccc2)NC(=O)[C@H](C)NC(=O)[C@H](CCCCN)NC1=O (H-AGCKAFFWKTFTSC-NH2; disulfide 3-14) ?
2.20

----------
- Study System: UniProt:P32745
- Sequence (P32745 whole entry): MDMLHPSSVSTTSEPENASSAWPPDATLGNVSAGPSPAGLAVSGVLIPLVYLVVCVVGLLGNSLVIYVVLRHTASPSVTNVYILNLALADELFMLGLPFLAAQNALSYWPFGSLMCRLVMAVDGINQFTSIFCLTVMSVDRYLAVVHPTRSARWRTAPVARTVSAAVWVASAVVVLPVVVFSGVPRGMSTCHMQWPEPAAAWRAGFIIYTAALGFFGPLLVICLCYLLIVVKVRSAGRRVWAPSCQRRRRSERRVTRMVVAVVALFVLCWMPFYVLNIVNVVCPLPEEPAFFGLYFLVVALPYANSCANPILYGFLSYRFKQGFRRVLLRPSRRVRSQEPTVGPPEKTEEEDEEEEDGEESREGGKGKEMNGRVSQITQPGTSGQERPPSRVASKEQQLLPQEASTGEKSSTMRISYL
- Protocol Summary: Binding affinity towards human Somatostatin receptor type 3 (sst3) using Tyr11-[125I]-SRIF as radioligand was determined in CHO cells
Starred links: 1 amine or outer side, 2 acyl side, 3 side chain; linkers in the order of their positions; H or OH if unused. Positions of bridges follow the written chain, without caps; N, C: chain ends. Non-standard residues stand in square brackets, D forms with d. Residues, ends and D or L forms follow the SMILES beside them. Groups on a side chain read outwards from the residue. *: point of attachment. Ethylenediamine = C(CN[*:2])N[*:1]; Hyp = O=C(O)[C@@H]1C[C@@H](O)CN1; Phg = N[C@H](C(=O)O)c1ccccc1; CO = O=C([*:1])[*:2]; Bn = c1ccc(C*)cc1
# pKi per entry
FYI, pKi means -log10 of a concentration in mol per litre.

Look up pKi for this molecule: C[C@H](N)C(=O)N[C@@H](C)C(=O)N[C@H]1CSSC[C@@H](C(N)=O)NC(=O)[C@H](CO)NC(=O)[C@H]([C@@H](C)O)NC(=O)[C@H](Cc2ccccc2)NC(=O)[C@H]([C@@H](C)O)NC(=O)[C@H](CCCCN)NC(=O)[C@H](Cc2c[nH]c3ccccc23)NC(=O)[C@H](Cc2ccccc2)NC(=O)[C@H](Cc2ccccc2)NC(=O)[C@H](CC(N)=O)NC(=O)[C@H](CCCCN)NC1=O (H-AACKNFFWKTFTSC-NH2; disulfide 3-14)
9.10

Continue with C[C@H](N)C(=O)NCC(=O)N[C@H]1CSSC[C@@H](C(N)=O)NC(=O)[C@H](CO)NC(=O)[C@H]([C@@H](C)O)NC(=O)[C@H](Cc2ccccc2)NC(=O)[C@H]([C@@H](C)O)NC(=O)[C@H](C)NC(=O)[C@H](Cc2c[nH]c3ccccc23)NC(=O)[C@H](Cc2ccccc2)NC(=O)[C@H](Cc2ccccc2)NC(=O)[C@H](CC(N)=O)NC(=O)[C@H](CCCCN)NC1=O (H-AGCKNFFWATFTSC-NH2; disulfide 3-14)
6.00

Continue with C[C@H](N)C(=O)NCC(=O)N[C@H]1CSSC[C@@H](C(N)=O)NC(=O)[C@H](CO)NC(=O)[C@H]([C@@H](C)O)NC(=O)[C@H](C)NC(=O)[C@H]([C@@H](C)O)NC(=O)[C@H](CCCCN)NC(=O)[C@H](Cc2c[nH]c3ccccc23)NC(=O)[C@H](Cc2ccccc2)NC(=O)[C@H](Cc2ccccc2)NC(=O)[C@H](CC(N)=O)NC(=O)[C@H](CCCCN)NC1=O (H-AGCKNFFWKTATSC-NH2; disulfide 3-14)
8.10

Item: "NCCCC[C@@H]1NC(=O)[C@@H](Cc2c[nH]c3ccccc23)NC(=O)[C@H](Cc2c[nH]cn2)NC(=O)[C@@H]2C[C@@H](OC(=O)NCCN)CN2C(=O)[C@H](Cc2ccccc2)NC(=O)[C@H](Cc2ccc(OCc3ccccc3)cc2)NC1=O"
9.10

Continue with NCCCC[C@@H]1NC(=O)[C@@H](Cc2c[nH]c3ccccc23)NC(=O)[C@H](c2ccccc2)NC(=O)[C@@H]2C[C@@H](OC(=O)NCCN)CN2C(=O)[C@H](Cc2ccccc2)NC(=O)[C@H](Cc2ccc(OCc3ccccc3)cc2)NC1=O [PASIREOTIDE] (cyclo(F[Hyp]([CO-Ethylenediamine])[Phg][dW]KY(Bn)))
9.10

More entries:
Consider the molecule C[C@H](N)C(=O)NCC(=O)N[C@H]1CSSC[C@@H](C(N)=O)NC(=O)[C@H](CO)NC(=O)[C@H]([C@@H](C)O)NC(=O)[C@H](Cc2ccccc2)NC(=O)[C@H]([C@@H](C)O)NC(=O)[C@H](CCCCN)NC(=O)[C@H](Cc2c[nH]c3ccccc23)NC(=O)[C@H](Cc2ccccc2)NC(=O)[C@H](Cc2ccccc2)NC(=O)[C@H](CC(N)=O)NC(=O)[C@H](C)NC1=O (H-AGCANFFWKTFTSC-NH2; disulfide 3-14) and give its measured pKi.
8.60

// provenance: ChEMBL document CHEMBL1145006
